TARGET_OR_SYSTEM: T1, human Y1 receptor (P25929, NPY1R_HUMAN, Uniprot) (human, UniProt P25929 1-384)
T1 construct: whole, on cells; Assayed as membrane preparations of the expressing cells; also called NPY-Y1 receptor
T1 sequence (looked up): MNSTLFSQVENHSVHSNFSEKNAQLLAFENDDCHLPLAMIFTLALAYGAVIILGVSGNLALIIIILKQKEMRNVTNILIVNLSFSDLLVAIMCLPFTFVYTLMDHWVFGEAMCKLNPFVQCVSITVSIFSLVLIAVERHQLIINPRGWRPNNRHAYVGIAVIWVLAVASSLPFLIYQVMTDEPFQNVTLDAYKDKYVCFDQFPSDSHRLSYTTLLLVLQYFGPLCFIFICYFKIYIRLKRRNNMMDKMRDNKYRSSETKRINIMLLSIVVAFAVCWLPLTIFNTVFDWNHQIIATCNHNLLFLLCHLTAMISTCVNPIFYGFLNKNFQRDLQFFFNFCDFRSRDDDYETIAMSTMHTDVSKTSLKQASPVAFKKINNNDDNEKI
ASSAY_METHOD_TEXT: SPA vs [125I]-PYY(1-36)
Numbered stars: 1 amine (or outer) side, 2 acyl side, 3 side chain; on linkers, the order of the positions; unused ones are H or OH. Side chains are listed from the residue outwards. * marks the point of attachment. C18 diacid = O=C(O)CCCCCCCCCCCCCCCCC(=O)*; γGlu = O=C(O)[C@H](CCC(=O)[*:2])N[*:1]; Isovaleryl = CC(C)CC(=O)*; AEEA = NCCOCCOCC(=O)O
ASSAY_METRIC: pKi
Note: pKi values are expressed as the negative base-10 logarithm of concentration in M.

binder="RPEKPTEDASPEELQRYYASLRHYYNWLTRQRY (N-terminal alpha-amino (position 4): 3-methylbutanoyl; Lys7 (hPYY(1-36) numbering) epsilon-amino: [2-[2-[2-[[2-[2-[2-[[(4S)-4-carboxy-4-(17-carboxyheptadecanoylamino)butanoyl]amino]ethoxy]ethoxy]acetyl]amino]ethoxy]ethoxy]acetyl]; C-terminal amide, also called Compound 14; 14)" assay_metric=pKi obs_value=5.05

As a next step, examine the binder that follows.
stdin: // fetch pKi given entry Isovaleryl-RPEAPPK([γGlu-AEEA-γGlu-C18 diacid])DASPEELQRYYESLRHYYNWLTRQRY-NH2 (also called Compound 54; 54)
stdout: 5.62
